assayed target: T1, His-tagged soluble recombinant human IGF-IR (srhIGF-1R-his) (human, UniProt P08069 31-935)
T1 construct: extracellular domain; Bought construct; not shown: His tag
measurement notes: ALPHAScreen competition against b-hIGF-1 on srhIGF-1R-his
reported property: IC50 (nM)
One number for each entry, in nM.

IC50 reading for GIISQSCPESFYDWFAGQVSDPWWCW [G33] : 600
